Tested on: MRC5 cells
Assay: Cell viability assay in MRC5 cells (MTT)
Details: 300 nM
Where a name gives a salt, the structure may show the parent alone.
Readings of Cell viability at 300 nM (%) for the listed molecules
I only need the number, in %, no unit after it.

Some solved cases for reference:
INSERT INTO results (molecule, measured_metric, units_label, reported_value) VALUES
  ('COC(=O)c1cc2c(cc1C)/C(=C(/Nc1ccc(C(=O)NCCN3CCC(O)CC3)cc1)c1ccccc1)C(=O)N2 [Example 12]', 'Cell viability at 300 nM (%)', '%', 105.5),
  ('COC(=O)c1cc2c(cc1C)/C(=C(/Nc1ccc(C(=O)N[C@H]3CCCN(C)C3)cc1)c1ccccc1)C(=O)N2 [Example 27]', 'Cell viability at 300 nM (%)', '%', 112.6);

Q: Complete the entry with Cell viability at 300 nM (%) for COC(=O)c1cc2c(cc1C)/C(=C(/Nc1ccc(C(=O)N3CCC(O)(CN4CCCC4)CC3)cc1)c1ccccc1)C(=O)N2 [Example 37, formate]
A: 83.4

====

Assay: Pharmacokinetic measurements in rats (i.v., i.t., oral)
Type: in vivo
Settings: male, CD, rat, lung/plasma, iv; read-out: lung/plasma ratio at time 1.5 h
Where a name gives a salt, the structure may show the parent alone.
Readings of Kp at 1.5 h for the listed molecules
Form rule: numeric answer, no unit written next to it.

INSERT INTO measurements (molecule, reported_value) VALUES
  ('COC(=O)c1cc2c(cc1C)/C(=C(/Nc1ccc(C(=O)NCCN3CCNC(=O)C3)cc1)c1ccccc1)C(=O)N2 [Example 9]', 55);

For the next question, use this molecule.
Q: Complete the entry with Kp at 1.5 h for COC(=O)c1cc2c(cc1C)/C(=C(/Nc1ccc(C(=O)NCC3CCN(C)CC3)cc1)c1ccccc1)C(=O)N2 [Example 3, formate]
A: 154

====

Biological target: PDGFRβ (Homo sapiens (Human))
Assay: PDGFRβ enzyme inhibition (ADP-Glo assay)
Type: biochemical
Conditions: mean, n = 2 (nintedanib n = 34)
Where a name gives a salt, the structure may show the parent alone.
measured.metric: Ki (nM)
I only need the number, in nM, no unit after it.

Some solved cases for reference:
INSERT INTO measurements (compound, units_label, reported_value) VALUES
  ('COC(=O)c1cc2c(cc1C)/C(=C(/Nc1ccc(C(=O)N3CCC(C(=O)NCCN(C)C)CC3)cc1)c1ccccc1)C(=O)N2 [Example 31]', 'nM', 4.83),
  ('COC(=O)c1cc2c(cc1C)/C(=C(/Nc1ccc(C(=O)NCCCN3CCN(C)CC3)cc1)c1ccccc1)C(=O)N2 [Example 21, formate]', 'nM', 6.11);

Q: State Ki on PDGFRβ (Homo sapiens (Human)). Entry: COC(=O)c1cc2c(cc1C)/C(=C(/Nc1ccc(C(=O)N3CCC(CO)(CN(C)C)CC3)cc1)c1ccccc1)C(=O)N2 [Example 38]
A: 4.79

====

Experiment: Pharmacokinetic measurements in rats (i.v., i.t., oral)
Format: in vivo
Conditions: male, CD, rat, lung/plasma, other: intra-tracheal; read-out: lung/plasma conc ratio at time 6 h
Counter-ions that a name gives are not always drawn.
measured.metric: Kp at 6 h
Form rule: numeric answer, no unit written next to it.

Q: Complete the entry with Kp at 6 h for COC(=O)c1cc2c(cc1C)/C(=C(/Nc1ccc(C(=O)NCC3CCN(C)CC3)cc1)c1ccccc1)C(=O)N2 [Example 3, formate]
A: 2150

====

Assay: Pharmacokinetic measurements in rats (i.v., i.t., oral)
Format: in vivo
Settings: male, CD, rat, plasma, iv
Counter-ions that a name gives are not always drawn.
measured.metric: half-life (h)
I only need the number, in h, no unit after it.

INSERT INTO assay_data (molecule, measured_metric, units_label, reported_value) VALUES
  ('COC(=O)c1cc2c(cc1C)/C(=C(/Nc1ccc(C(=O)NCC(=O)N3CCN(CCO)CC3)cc1)c1ccccc1)C(=O)N2', 'half-life', 'h', 0.6),
  ('COC(=O)c1cc2c(cc1C)/C(=C(/Nc1ccc(C(=O)NC3CCN(C)CC3)cc1)c1ccccc1)C(=O)N2 [Example 18, formate]', 'half-life', 'h', 5.1),
  ('COC(=O)c1cc2c(cc1C)/C(=C(/Nc1ccc(C(=O)NCCN3CCNC(=O)C3)cc1)c1ccccc1)C(=O)N2', 'half-life', 'h', 1.1);

For the next question, use this molecule.
Q: Complete the entry with half-life for COC(=O)c1ccc2c(c1)NC(=O)/C2=C(\Nc1ccc(N(C)C(=O)CN2CCN(C)CC2)cc1)c1ccccc1 [Nintedanib, reference compound]
A: 3.9

====

Target: PDGFRβ (Homo sapiens (Human), UniProt P09619)
Sequence (P09619 33-1106): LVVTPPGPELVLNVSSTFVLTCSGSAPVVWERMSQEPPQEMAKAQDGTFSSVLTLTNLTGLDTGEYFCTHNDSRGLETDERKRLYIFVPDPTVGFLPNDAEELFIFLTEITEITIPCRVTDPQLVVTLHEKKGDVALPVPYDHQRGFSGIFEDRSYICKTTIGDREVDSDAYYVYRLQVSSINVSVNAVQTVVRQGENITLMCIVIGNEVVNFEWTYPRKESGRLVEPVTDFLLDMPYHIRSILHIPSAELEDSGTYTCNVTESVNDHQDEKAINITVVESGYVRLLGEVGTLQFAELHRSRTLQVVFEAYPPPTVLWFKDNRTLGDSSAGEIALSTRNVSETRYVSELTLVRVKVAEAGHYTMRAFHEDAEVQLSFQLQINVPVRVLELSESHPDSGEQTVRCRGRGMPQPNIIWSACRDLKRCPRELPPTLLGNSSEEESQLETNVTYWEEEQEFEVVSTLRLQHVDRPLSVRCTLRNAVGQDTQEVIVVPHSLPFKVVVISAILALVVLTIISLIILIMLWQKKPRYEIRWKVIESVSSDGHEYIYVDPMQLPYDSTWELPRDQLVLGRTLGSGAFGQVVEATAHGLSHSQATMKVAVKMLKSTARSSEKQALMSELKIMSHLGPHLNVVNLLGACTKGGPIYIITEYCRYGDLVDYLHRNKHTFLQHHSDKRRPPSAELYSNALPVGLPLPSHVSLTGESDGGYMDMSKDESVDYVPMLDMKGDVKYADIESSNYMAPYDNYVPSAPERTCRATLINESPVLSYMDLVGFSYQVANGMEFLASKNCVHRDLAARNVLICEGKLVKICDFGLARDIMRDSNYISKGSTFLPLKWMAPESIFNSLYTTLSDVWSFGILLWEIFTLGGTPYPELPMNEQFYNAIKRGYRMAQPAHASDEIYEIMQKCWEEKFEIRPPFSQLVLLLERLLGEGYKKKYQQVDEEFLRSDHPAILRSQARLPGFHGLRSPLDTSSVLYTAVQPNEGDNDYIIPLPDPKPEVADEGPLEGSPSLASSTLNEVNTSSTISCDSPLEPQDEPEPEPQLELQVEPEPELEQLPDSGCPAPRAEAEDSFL
Test: PDGF-BB induced phosphorylation of PDGFRβ in fibroblasts (MRC5, HTRF)
Type: cell-based
Details: MRC5 cells, PDGFBB stimulation; read-out: PDGFBB-induced PDGFRβ phosphorylation in MRC5 cells (IC50)
Counter-ions that a name gives are not always drawn.
measured.metric: pIC50
The value called pIC50 is obtained by taking minus log10 of the concentration in mol/L.

INSERT INTO assay_data (compound, reported_value) VALUES
  ('COC(=O)c1cc2c(cc1C)/C(=C(/Nc1ccc(C(=O)NCC3CCN(C)CC3)cc1)c1ccccc1)C(=O)N2 [Example 3, formate]', 7.90),
  ('COC(=O)c1cc2c(cc1C)/C(=C(/Nc1ccc(C(=O)NCCN3CCCNC(=O)C3)cc1)c1ccccc1)C(=O)N2 [Example 56]', 8.04);

For the next question, use this compound.
Q: Complete the entry with pIC50 for CNC(=O)CN(C)CCNC(=O)c1ccc(N/C(=C2\C(=O)Nc3cc(C(=O)OC)c(C)cc32)c2ccccc2)cc1 [Example 54]
A: 8.30

====

Readings of Cell viability at 300 nM (%) for the listed molecules
System: MRC5 cells
Experiment: Cell viability assay in MRC5 cells (MTT)
Conditions: 300 nM
I only need the number, in %, no unit after it.

Some solved cases for reference:
INSERT INTO measurements (compound, reported_value) VALUES
  ('COC(=O)c1cc2c(cc1C)/C(=C(/Nc1ccc(C(=O)NCCN3CCNC(=O)CC3)cc1)c1ccccc1)C(=O)N2', 92.9),
  ('COC(=O)c1cc2c(cc1C)/C(=C(/Nc1ccc(C(=O)NCCN3CCC(F)(F)CC3)cc1)c1ccccc1)C(=O)N2', 100.5),
  ('COC(=O)c1cc2c(cc1C)/C(=C(/Nc1ccc(C(=O)NCCN3CCNC(=O)C3)c(F)c1)c1ccccc1)C(=O)N2', 101.5);

For the next question, use this molecule.
Q: Complete the entry with Cell viability at 300 nM (%) for `COC(=O)c1cc2c(cc1C)/C(=C(/Nc1ccc(C(=O)NCCN(C)CCO)cc1)c1ccccc1)C(=O)N2`
A: 95.5

====

Test: Pharmacokinetic measurements in rats (i.v., i.t., oral)
Format: in vivo
Conditions: male, CD, rat, plasma, iv
measured.metric: MRT (h)
I only need the number, in h, no unit after it.

INSERT INTO assay_data (compound, measured_metric, units_label, reported_value) VALUES
  ('COC(=O)c1ccc2c(c1)NC(=O)/C2=C(\Nc1ccc(N(C)C(=O)CN2CCN(C)CC2)cc1)c1ccccc1 [Nintedanib, reference compound]', 'MRT', 'h', 3.8),
  ('COC(=O)c1cc2c(cc1C)/C(=C(/Nc1ccc(C(=O)NCC(=O)N3CCN(CCO)CC3)cc1)c1ccccc1)C(=O)N2 [Example 7]', 'MRT', 'h', 0.7);

Q: Complete the entry with MRT for COC(=O)c1cc2c(cc1C)/C(=C(/Nc1ccc(C(=O)NCCN3CCNC(=O)C3)cc1)c1ccccc1)C(=O)N2 [Example 9]
A: 1.1

====

Test system: MRC5 cells
Experiment: Cell viability assay in MRC5 cells (MTT)
Conditions: 100 nM
measured.metric: Cell viability at 100 nM (%)
I only need the number, in %, no unit after it.

Some solved cases for reference:
INSERT INTO assay_data (compound, measured_metric, reported_value) VALUES
  ('COC(=O)c1ccc2c(c1)NC(=O)/C2=C(\Nc1ccc(N(C)C(=O)CN2CCN(C)CC2)cc1)c1ccccc1 [Nintedanib, reference compound]', 'Cell viability at 100 nM (%)', 104.6),
  ('COC(=O)c1cc2c(cc1C)/C(=C(/Nc1ccc(C(=O)N3CCC(O)(CN4CCOCC4)CC3)cc1)c1ccccc1)C(=O)N2', 'Cell viability at 100 nM (%)', 80.1),
  ('COC(=O)c1cc2c(cc1C)/C(=C(/Nc1ccc(C(=O)N[C@H]3CCCN(C)C3)cc1)c1ccccc1)C(=O)N2', 'Cell viability at 100 nM (%)', 106.5),
  ('COC(=O)c1cc2c(cc1C)/C(=C(/Nc1ccc(C(=O)N3CCN(CC(=O)NCCO)CC3)cc1)c1ccccc1)C(=O)N2', 'Cell viability at 100 nM (%)', 91.3),
  ('COC(=O)c1cc2c(cc1C)/C(=C(/Nc1ccc(C(=O)NCC(=O)N3CCN(C)CC3)cc1)c1ccccc1)C(=O)N2', 'Cell viability at 100 nM (%)', 110.4);

For the next question, use this compound.
Q: Complete the entry with Cell viability at 100 nM (%) for `COC(=O)c1cc2c(cc1C)/C(=C(/Nc1ccc(C(=O)NCCN3CCCNC(=O)C3)cc1)c1ccccc1)C(=O)N2`
A: 100.0

Origin of measurements: patent US10669235B2
